For each entry below, report its LD50 at 24 h value.
- assay_protocol: Toxicity in ip dosed Mus musculus (mouse) after 24 hr
- Format: organism-based
- test_parameters: in vivo
One number for each entry, in mg/kg.

compound: COc1ccc(-c2c(C)c(C(=O)O)nn2-c2ccc(Cl)cc2)c(OC)c1
test_value: 232
--
compound: COc1ccc(C2=NNCC2c2ccccc2)c(OC)c1 (stereo not given)
test_value: 278
--
compound: Cc1ccc(-c2cc(C(F)(F)F)nn2-c2ccc(S(N)(=O)=O)cc2)cc1 [CELECOXIB]
test_value: 250
--
compound: COc1ccc(C2=NN(C(=O)NS(=O)(=O)c3ccc(Cl)cc3)CC2C)c(OC)c1 (stereo not given)
test_value: 248

IN: Answer with the recorded LD50 at 24 h for the compound listed here: COc1ccc(C2=NN(C(=S)NC(=O)c3ccc(Cl)cc3)CC2c2ccccc2)c(OC)c1 (stereo not given)
OUT: 292

----------
- Tested on: Rattus norvegicus
- assay_protocol: Anti-inflammatory activity in Rattus norvegicus albino (rat) assessed as inhibition of carrageenan-induced paw edema at 25 mg/kg, ip pretreated 30 min prior to carrageenan administration measured 4 hr after carrageenan challenge (reference value: 0%)
- Type: functional
- test_parameters: route intraperitoneal
assay_readout: inhibition in vivo at 25 mg/kg (%)
Numbers only, in %.

Example cases with answers are listed next.
compound: CCOC(=O)c1nn(-c2ccc(Cl)cc2)c(-c2ccc(OC)cc2OC)c1-c1ccccc1
inhibition in vivo at 25 mg/kg (%): 15.4

compound: CCOC(=O)c1nn(-c2ccc(Cl)cc2)c(-c2ccc(OC)cc2OC)c1C
inhibition in vivo at 25 mg/kg (%): 2.38

compound: CCOC(=O)C(=O)C(C)C(=O)c1ccc(OC)cc1OC (stereo unspecified)
inhibition in vivo at 25 mg/kg (%): 24.6

compound: CC(C)Cc1ccc(C(C)C(=O)O)cc1 (stereo unspecified)
inhibition in vivo at 25 mg/kg (%): 76.1

compound: COc1ccc(C2=NN(C(=O)NS(=O)(=O)c3ccc(Cl)cc3)CC2c2ccccc2)c(OC)c1 (stereo unspecified)
inhibition in vivo at 25 mg/kg (%): 23.6

Provide reported inhibition in vivo at 25 mg/kg for each item, in the same order as listed.
1. CCOC(=O)C(=O)C(C(=O)c1ccc(OC)cc1OC)c1ccccc1 (stereo unspecified)
2. COc1ccc(-c2c(C)c(C(=O)O)nn2-c2ccc(Cl)cc2)c(OC)c1
3. C=C(C)C(=O)c1ccc(OC)cc1OC
4. CCOC(=O)c1nn(-c2ccccc2)c(-c2ccc(OC)cc2OC)c1-c1ccccc1
5. COc1ccc(C2=NNCC2c2ccccc2)c(OC)c1 (stereo unspecified)
6. COc1ccc(C2=NNCC2C)c(OC)c1 (stereo unspecified)

OUT:
1: 21.2; 2: 22.7; 3: 32.3; 4: 20.2; 5: 1.92; 6: 44.4

----------
For each entry below, report its UI value.
- Test system: Rattus norvegicus
- assay_protocol: Gastrointestinal toxicity in Rattus norvegicus albino (rat) assessed as ulcer index at 25 mg/kg, po for 3 days measured 2 hr after last dose
- Assay type: organism-based
- Design: dose 25 mg/kg, route oral
- test_parameters: in vivo
One number for each entry.

Example cases with answers are listed next.
compound: COc1ccc(-c2c(-c3ccccc3)c(C(=O)O)nn2-c2ccc(Cl)cc2)c(OC)c1
subject_of_test: Rattus norvegicus
UI: 11.56

compound: Cc1ccc(-c2cc(C(F)(F)F)nn2-c2ccc(S(N)(=O)=O)cc2)cc1
subject_of_test: Rattus norvegicus
UI: 8.4

compound: CC(C)Cc1ccc(C(C)C(=O)O)cc1 (stereo not given)
subject_of_test: Rattus norvegicus
UI: 22.92

compound: C=C(C)C(=O)c1ccc(OC)cc1OC
subject_of_test: Rattus norvegicus
UI: 15.24

Now take the following compound into account.
IN: Answer with the recorded UI for the compound listed here: COc1ccc(C2=NNCC2C)c(OC)c1 (stereo not given)
OUT: 11.67
